Where these numbers come from: the PolyMetriX glass transition set

REPORTED_ENDPOINT: glass transition temperature (°C)

Some molecules with known glass transition temperature results, for comparison:
*CC(*)(Cl)C(=O)OCCC(F)(F)C(F)(F)C(F)(F)C(F)(F)C(F)(F)C(F)(F)C(F)(F)C(F)(F)F (repeat unit) = 61.00
*Oc1ccc(NC(=O)c2cc(NC(=O)c3ccc(OC(C)=O)cc3)cc(C(=O)Nc3ccc(Oc4ccc(-c5ccc(*)cc5)cc4)cc3)c2)cc1 (repeat unit) = 252.00
*CC(OCCCC)C1(C)C(=O)OC(=O)C1(*)C (repeat unit) = 197.00
*CC(*)(CCCCCCCC)C(=O)OC (repeat unit) = 34.00

1: *c1ccc(-c2nc3cc(Oc4ccc5nc(-c6ccccc6)c(-c6ccc(-n7c(=O)c8cc9c(=O)n(*)c(=O)c9cc8c7=O)cc6)nc5c4)ccc3nc2-c2ccccc2)cc1 (repeat unit)
2: *CCCCCCOC(=O)OCCCCCCCCOC(=O)OCCCCCCOc1ccc(C(=O)c2ccc(O*)cc2)cc1 (repeat unit)
3: *C[Si](*)(C)CCCn1c2ccccc2c2ccccc21 (repeat unit)
Sort the 3 molecules by glass transition temperature; largest first, smallest last. Returns: the labels arranged in the requested order.
1, 3, 2
